# assayDetails: Her2 expression decrease, cell viability multiplex – SKBR3 breast tumor cells, AlphaScreen, ATP viability, primary screen (AID 461);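 also: percent of carrier control wells set as 100% viability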
# condition: SKBR3 Her2 protein level, 18-24 h, measured here: SKBR3 viability, ATP luminescence, at 10 µM
readoutType: viability (%)
Dear colleague, please return just the value in %, with no unit written.

{"compound": "CC12CN3CC(C)(CN(C1)C3c1ccc(Cl)cc1Cl)C2=O (stereo not drawn)", "readoutType": "viability", "valueObserved": 97}
{"compound": "CCOc1ccc2nc(Nc3nc4c(c(=O)[nH]3)CCC4)nc(C)c2c1", "readoutType": "viability", "valueObserved": 99.5}
{"compound": "CCN1CCN(C(=O)Cn2ncc3ccsc3c2=O)CC1", "readoutType": "viability", "valueObserved": 101}

Find the recorded viability belonging to CCCCS(=O)(=O)NC1=NCN(CCOC(=O)c2ccccc2)CN1 and report it.
95.5

Find the recorded viability belonging to Fc1ccc(-c2ccc(-c3nn4c(-c5ccco5)nnc4s3)o2)cc1 and report it.
76

Find the recorded viability belonging to CC(=O)Nc1cccc(NC(=O)c2ccco2)c1 and report it.
94

Find the recorded viability belonging to CCOC(=O)N1CCC(NC(=O)c2ccc(CS(=O)(=O)c3c(Cl)cccc3Cl)o2)CC1 and report it.
84.5

Find the recorded viability belonging to O=C(Nc1nc(-c2ccncc2)cs1)C1COc2ccccc2O1 (stereo not drawn) and report it.
83.5

Origin of the recorded values: PubChem BioAssay
